Kindly supply the reported pIC50 values for the records listed here.
tgt: MBP-TbtD
measurement.protocol: fluorescence polarisation
Answers are plain numbers, as −log10 of the molar value.

INSERT INTO measurements (binder, numeric_value) VALUES
  ('MALNDLPMDVFELADSGVAVESLTAGHGMTEVGASCNCFCYICCSCSSA [TbtA D(−33)A]', 6.14),
  ('MDLNDLPMDVFELADSGVAVESLTAGHGMTEAGASCNCFCYICCSCSSA [TbtA V(−3)A]', 5.87),
  ('MDLNDLPMDVFELADSGVAVASLTAGHGMTEVGASCNCFCYICCSCSSA [TbtA E(−14)A]', 5.35),
  ('MDLNDLPMDVFALADSGVAVESLTAGHGMTEVGASCNCFCYICCSCSSA [TbtA E(−23)A]', 5.46);

List reported pIC50 for each of these binders:
1. MDLNDLPMDVFELADSGVAVESLTAGAGMTEVGASCNCFCYICCSCSSA [TbtA H(−8)A]
2. MDLNDLPMDVFELADSGVAAESLTAGHGMTEVGASCNCFCYICCSCSSA [TbtA V(−15)A]
3. MDLNDLPMDVAELADSGVAVESLTAGHGMTEVGASCNCFCYICCSCSSA [TbtA F(−24)A]
4. MDLNDLPMDVFELAASGVAVESLTAGHGMTEVGASCNCFCYICCSCSSA [TbtA D(−20)A]

A)
5.43
5.97
5.82
5.38
